So I've got a bunch of compounds here, and I need their inhibition at 0.041 µM values.
- Measurement Target: EGFR (ErbB1) (Homo sapiens (Human), UniProt P00533)
- Sequence (P00533 25-1210): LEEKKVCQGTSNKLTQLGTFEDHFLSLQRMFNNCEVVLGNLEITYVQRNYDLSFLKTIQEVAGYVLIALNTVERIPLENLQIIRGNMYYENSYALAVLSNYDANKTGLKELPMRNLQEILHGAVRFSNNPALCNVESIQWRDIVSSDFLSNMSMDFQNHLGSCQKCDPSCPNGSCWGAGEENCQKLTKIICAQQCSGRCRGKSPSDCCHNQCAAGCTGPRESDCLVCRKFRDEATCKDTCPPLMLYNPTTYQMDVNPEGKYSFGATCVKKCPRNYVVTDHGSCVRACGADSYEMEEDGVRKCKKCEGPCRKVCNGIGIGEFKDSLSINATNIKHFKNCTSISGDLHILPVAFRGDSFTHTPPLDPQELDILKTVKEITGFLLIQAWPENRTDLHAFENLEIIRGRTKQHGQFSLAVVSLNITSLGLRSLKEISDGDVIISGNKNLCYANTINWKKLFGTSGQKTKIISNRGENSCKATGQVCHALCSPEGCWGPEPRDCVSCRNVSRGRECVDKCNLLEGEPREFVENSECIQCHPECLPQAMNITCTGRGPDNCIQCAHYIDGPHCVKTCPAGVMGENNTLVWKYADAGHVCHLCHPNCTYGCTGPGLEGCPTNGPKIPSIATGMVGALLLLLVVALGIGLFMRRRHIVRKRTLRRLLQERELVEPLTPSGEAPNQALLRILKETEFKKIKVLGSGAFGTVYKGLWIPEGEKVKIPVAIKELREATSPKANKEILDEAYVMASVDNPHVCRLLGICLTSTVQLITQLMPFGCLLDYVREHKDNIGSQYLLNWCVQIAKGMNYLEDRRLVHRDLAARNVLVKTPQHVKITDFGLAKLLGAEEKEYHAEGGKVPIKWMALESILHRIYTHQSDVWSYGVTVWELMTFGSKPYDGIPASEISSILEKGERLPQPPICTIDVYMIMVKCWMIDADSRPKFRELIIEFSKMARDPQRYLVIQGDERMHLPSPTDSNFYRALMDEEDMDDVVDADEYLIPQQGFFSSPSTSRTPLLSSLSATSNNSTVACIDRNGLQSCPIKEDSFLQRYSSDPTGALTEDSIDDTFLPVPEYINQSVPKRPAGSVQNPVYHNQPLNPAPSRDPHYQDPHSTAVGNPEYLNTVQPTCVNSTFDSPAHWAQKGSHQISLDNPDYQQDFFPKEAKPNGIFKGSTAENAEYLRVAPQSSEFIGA
- Assay Text: Z'-LYTE kinase inhibition assay, EGFR
- Type: biochemical
- Run Parameters: read-out: % inhibition against EGFR (Compound at 0.041 μM)

Exercise: Give recorded inhibition at 0.041 µM with EGFR (ErbB1) (Homo sapiens (Human), UniProt P00533) for the following compound: `C=CC(=O)Nc1cccc(-c2cccc3cnc(Nc4ccc(N5CCN(C)CC5)cc4)nc23)c1C(=O)OC`
Solution: < 50%

Exercise: Give recorded inhibition at 0.041 µM with EGFR (ErbB1) (Homo sapiens (Human), UniProt P00533) for the following compound: `C=CC(=O)Nc1cccc(-c2c(CO)ccc3cnc(Nc4ccc(N5CCN(C)CC5)cc4)nc23)c1`
Solution: > 50%

Exercise: Give recorded inhibition at 0.041 µM with EGFR (ErbB1) (Homo sapiens (Human), UniProt P00533) for the following compound: `C=CC(=O)Nc1cccc(-c2c(F)ccc3cnc(Nc4ccc(N5CCN(C)CC5)cc4)nc23)c1`
Solution: > 50%

Exercise: Give recorded inhibition at 0.041 µM with EGFR (ErbB1) (Homo sapiens (Human), UniProt P00533) for the following compound: C=CC(=O)Nc1cccc(-c2cccc3cnc(Nc4ccc(OC5CCN(C)CC5F)cc4)nc23)c1F (stereo not shown)
Solution: > 50%

----------
- Measurement Target: EGFR (ErbB1) T790M L858R (Homo sapiens (Human), UniProt P00533, L858R/T790M)
- Sequence (P00533 25-1210 T790M/L858R): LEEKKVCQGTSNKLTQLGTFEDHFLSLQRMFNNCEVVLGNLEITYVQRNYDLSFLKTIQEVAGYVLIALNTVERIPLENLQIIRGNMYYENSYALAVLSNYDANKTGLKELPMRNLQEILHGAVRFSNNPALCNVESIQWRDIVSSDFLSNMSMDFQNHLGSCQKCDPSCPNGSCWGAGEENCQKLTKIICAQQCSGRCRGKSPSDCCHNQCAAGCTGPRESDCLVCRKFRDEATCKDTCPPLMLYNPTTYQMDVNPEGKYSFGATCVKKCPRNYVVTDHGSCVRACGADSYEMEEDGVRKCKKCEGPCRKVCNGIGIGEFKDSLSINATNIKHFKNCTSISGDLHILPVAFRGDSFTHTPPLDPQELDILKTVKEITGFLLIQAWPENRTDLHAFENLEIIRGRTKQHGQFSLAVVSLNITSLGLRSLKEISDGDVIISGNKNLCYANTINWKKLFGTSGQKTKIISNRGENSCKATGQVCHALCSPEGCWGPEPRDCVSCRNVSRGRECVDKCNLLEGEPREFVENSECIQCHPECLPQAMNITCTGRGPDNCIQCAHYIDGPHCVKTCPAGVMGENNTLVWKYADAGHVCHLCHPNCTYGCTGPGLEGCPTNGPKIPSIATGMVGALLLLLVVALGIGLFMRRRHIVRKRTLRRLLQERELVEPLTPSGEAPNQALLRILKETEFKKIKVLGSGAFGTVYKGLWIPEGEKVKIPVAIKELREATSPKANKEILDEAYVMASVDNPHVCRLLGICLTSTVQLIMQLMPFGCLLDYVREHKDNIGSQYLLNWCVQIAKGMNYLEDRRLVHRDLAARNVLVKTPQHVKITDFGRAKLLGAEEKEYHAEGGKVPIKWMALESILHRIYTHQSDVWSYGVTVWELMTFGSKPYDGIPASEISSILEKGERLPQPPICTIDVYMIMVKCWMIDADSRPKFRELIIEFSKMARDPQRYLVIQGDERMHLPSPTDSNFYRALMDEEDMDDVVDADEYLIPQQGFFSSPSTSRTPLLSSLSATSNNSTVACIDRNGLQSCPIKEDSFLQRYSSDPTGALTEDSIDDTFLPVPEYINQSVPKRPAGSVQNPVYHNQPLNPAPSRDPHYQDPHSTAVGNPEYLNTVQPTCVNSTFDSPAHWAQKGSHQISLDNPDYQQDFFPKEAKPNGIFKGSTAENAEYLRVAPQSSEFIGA
- Assay Text: Z'-LYTE kinase inhibition assay, EGFR L858R/T790M
- Assay type: biochemical
- Run Parameters: read-out: % inhibition against EGFR L858R/T790M (Compound at 0.0137 μM)
So I've got a bunch of compounds here, and I need their inhibition at 0.0137 µM values.

Exercise: Looking for the measured inhibition at 0.0137 µM of C=CC(=O)Nc1cccc(-c2cccc3cnc(Nc4ccc(N5CCOCC5)cc4)nc23)c1 [Example C001] , can you help?
Solution: < 50%

Exercise: Looking for the measured inhibition at 0.0137 µM of C=CC(=O)Nc1cccc(-c2cccc3cnc(Nc4ccc(N5CCN(CC(N)=O)CC5)c(F)c4)nc23)c1 [Example C164] , can you help?
Solution: < 50%

Exercise: Looking for the measured inhibition at 0.0137 µM of C=CC(=O)Nc1cccc(-c2cccc3cnc(Nc4ccc(OCCN5CCC5)cc4)nc23)c1 [Example C109] , can you help?
Solution: > 50%

Exercise: Looking for the measured inhibition at 0.0137 µM of C=CC(=O)Nc1cccc(-c2cccc3cnc(Nc4ccc(N5CCN(C)CC5)c(Cl)c4)nc23)c1 [Example C072] , can you help?
Solution: > 50%

Exercise: Looking for the measured inhibition at 0.0137 µM of C=CC(=O)Nc1cccc(-c2cccc3cnc(Nc4ccc(NC5CN(CCO)C5)cc4)nc23)c1 [Example C099] , can you help?
Solution: > 50%

Exercise: Looking for the measured inhibition at 0.0137 µM of C=CC(=O)Nc1cccc(-c2cccc3cnc(Nc4ccc(N5CCN(CCOC)CC5)cc4F)nc23)c1 [Example C153] , can you help?
Solution: < 50%

Exercise: Looking for the measured inhibition at 0.0137 µM of C=CC(=O)Nc1cccc(-c2cccc3cnc(Nc4cnc(N5CCN(C)CC5)c(Cl)c4)nc23)c1 [Example C081] , can you help?
Solution: > 50%

Exercise: Looking for the measured inhibition at 0.0137 µM of C=CC(=O)Nc1cccc(-c2cccc3cnc(Nc4ccc(OC5CCN(CCF)CC5)cc4)nc23)c1 [Example C136] , can you help?
Solution: > 50%

Exercise: Looking for the measured inhibition at 0.0137 µM of C=CC(=O)Nc1cccc(-c2cccc3cnc(Nc4ccc(N5CCN(C)C(=O)C5)cc4)nc23)c1 [Example C116] , can you help?
Solution: < 50%

Exercise: Looking for the measured inhibition at 0.0137 µM of C=CC(=O)Nc1cccc(-c2cccc3cnc(Nc4ccc(OC5CN(C(C)=O)C5)cc4)nc23)c1 [Example C122] , can you help?
Solution: < 50%

Exercise: Looking for the measured inhibition at 0.0137 µM of C=CC(=O)Nc1cccc(-c2cccc3cnc(Nc4ccc(NC5CCN(C)CC5)cc4F)nc23)c1 [Example C140] , can you help?
Solution: > 50%

Exercise: Looking for the measured inhibition at 0.0137 µM of C=CC(=O)Nc1cccc(-c2cccc3cnc(Nc4ccc(N5CCN(C)CC5)cc4Cl)nc23)c1 [Example C043] , can you help?
Solution: > 50%

Exercise: Looking for the measured inhibition at 0.0137 µM of C=CC(=O)Nc1cccc(-c2cccc3cnc(Nc4ccc(N[C@@H]5CCN(C(C)=O)C5)cc4)nc23)c1 [Example C130] , can you help?
Solution: < 50%

Exercise: Looking for the measured inhibition at 0.0137 µM of C=CC(=O)Nc1cccc(-c2cccc3cnc(Nc4ccc(O[C@H]5CCN(C)C5)cc4)nc23)c1 [Example C121] , can you help?
Solution: > 50%

Exercise: Looking for the measured inhibition at 0.0137 µM of C=CC(=O)Nc1cccc(-c2cccc3cnc(Nc4ccc(N5CCN(CCOC)CC5)cc4)nc23)c1 [Example C152] , can you help?
Solution: > 50%

----------
- Measurement Target: EGFR (ErbB1) T790M L858R (Homo sapiens (Human), UniProt P00533, L858R/T790M)
- Assay Text: Z'-LYTE kinase inhibition assay, EGFR L858R/T790M
- Type: biochemical
- Run Parameters: read-out: % inhibition against EGFR L858R/T790M (Compound at 0.0137 μM)
Value Kind: inhibition at 0.0137 µM

Exercise: Give recorded inhibition at 0.0137 µM with EGFR (ErbB1) T790M L858R (Homo sapiens (Human), UniProt P00533, L858R/T790M) for the following compound: `C=CC(=O)Nc1cncc(-c2cccc3cnc(Nc4ccc(N5CCN(C)CC5)nc4)nc23)c1`
Solution: > 50%

Exercise: Give recorded inhibition at 0.0137 µM with EGFR (ErbB1) T790M L858R (Homo sapiens (Human), UniProt P00533, L858R/T790M) for the following compound: `C=CC(=O)Nc1cccc(-c2cccc3cnc(Nc4ccc(NC5CCN(C(C)=O)CC5)cc4)nc23)c1`
Solution: < 50%

Exercise: Give recorded inhibition at 0.0137 µM with EGFR (ErbB1) T790M L858R (Homo sapiens (Human), UniProt P00533, L858R/T790M) for the following compound: `C=CC(=O)Nc1ccc(Cl)c(-c2cccc3cnc(Nc4ccc(N5CCN(C)CC5)cc4)nc23)c1`
Solution: > 50%

Exercise: Give recorded inhibition at 0.0137 µM with EGFR (ErbB1) T790M L858R (Homo sapiens (Human), UniProt P00533, L858R/T790M) for the following compound: `C=CC(=O)N1CCC=C(c2cccc3cnc(Nc4ccc(N5CCN(C)CC5)cc4)nc23)C1`
Solution: < 50%

Exercise: Give recorded inhibition at 0.0137 µM with EGFR (ErbB1) T790M L858R (Homo sapiens (Human), UniProt P00533, L858R/T790M) for the following compound: `C=CC(=O)Nc1cccc(-c2cccc3cnc(Nc4ccc(N5CCN(CCOC)CC5)c(F)c4)nc23)c1`
Solution: > 50%

Exercise: Give recorded inhibition at 0.0137 µM with EGFR (ErbB1) T790M L858R (Homo sapiens (Human), UniProt P00533, L858R/T790M) for the following compound: `C=CC(=O)Nc1cccc(-c2cccc3cnc(Nc4ccc(N[C@H]5CCOC5)cc4)nc23)c1`
Solution: < 50%

Exercise: Give recorded inhibition at 0.0137 µM with EGFR (ErbB1) T790M L858R (Homo sapiens (Human), UniProt P00533, L858R/T790M) for the following compound: `C=CC(=O)Nc1cccc(-c2cccc3cnc(Nc4ccc(N(C)CCF)cc4)nc23)c1F`
Solution: < 50%

Exercise: Give recorded inhibition at 0.0137 µM with EGFR (ErbB1) T790M L858R (Homo sapiens (Human), UniProt P00533, L858R/T790M) for the following compound: `CCC(=O)Nc1cccc(-c2c(C)ccc3cnc(Nc4ccc(N5CCN(C)CC5)cc4)nc23)c1`
Solution: < 50%

----------
So I've got a bunch of compounds here, and I need their inhibition at 0.0137 µM values.
- Measurement Target: EGFR (ErbB1) T790M L858R (Homo sapiens (Human), UniProt P00533, L858R/T790M)
- Assay Text: Z'-LYTE kinase inhibition assay, EGFR L858R/T790M
- Type: biochemical
- Run Parameters: read-out: % inhibition against EGFR L858R/T790M (Compound at 0.0137 μM)

Exercise: Looking for the measured inhibition at 0.0137 µM of `C=CC(=O)Nc1cccc(-c2cccc3cnc(Nc4ccc(OCCN(C)C)cc4)nc23)c1` , can you help?
Solution: > 50%

Exercise: Looking for the measured inhibition at 0.0137 µM of `C=CC(=O)Nc1cccc(-c2cccc3cnc(Nc4ccc(N5CCN(C(C)=O)CC5)cc4)nc23)c1Cl` , can you help?
Solution: > 50%

Exercise: Looking for the measured inhibition at 0.0137 µM of `C=CC(=O)Nc1cccc(-c2cccc3cnc(Nc4ccc(N5CCN(C)CC5)cc4OC)nc23)c1` , can you help?
Solution: > 50%

Exercise: Looking for the measured inhibition at 0.0137 µM of `C=CC(=O)Nc1cccc(-c2cccc3cnc(Nc4ccc(N5CCCC5=O)cc4)nc23)c1` , can you help?
Solution: < 50%

Exercise: Looking for the measured inhibition at 0.0137 µM of `C=CC(=O)Nc1cccc(-c2cccc3cnc(Nc4ccc(NCC(F)F)cc4)nc23)c1` , can you help?
Solution: < 50%

Exercise: Looking for the measured inhibition at 0.0137 µM of `C=CC(=O)Nc1cccc(-c2cccc3cnc(Nc4ccc(N5CCN(C)CC5)cc4)nc23)c1F` , can you help?
Solution: > 50%
